Origin of values: patent US10501489B2

Test system: RAW264.7 mouse macrophages
Assay: Suppression of IFNγ-induced NO production (nitric oxide production and cell viability assay)
Type: cell-based
Settings: RAW264.7 cells, drug pre-treatment 2 hours, then recombinant mouse IFNγ 24 hours; Griess reagent; normalized to cell viability (WST-1)
# if measured IC50 < 0.7 nM: t  # else: f

Identify whether the molecule CC1(C)CC[C@]2(CCC(=O)N3CCC(O)CC3)CC[C@]3(C)[C@H](C(=O)C=C4[C@@]5(C)C=C(C#N)C(=O)C(C)(C)[C@@H]5CC[C@]43C)[C@@H]2C1 [TX64048] records IC50 below 0.7 nM.
f

Identify whether the molecule CC1(C)CC[C@]2(CCC(=O)N3CCC(F)(F)C3)CC[C@]3(C)[C@H](C(=O)C=C4[C@@]5(C)C=C(C#N)C(=O)C(C)(C)[C@@H]5CC[C@]43C)[C@@H]2C1 [TX64049] records IC50 below 0.7 nM.
f

Identify whether the molecule CCNC(=O)OCC[C@]12CCC(C)(C)C[C@H]1[C@H]1C(=O)C=C3[C@@]4(C)C=C(C#N)C(=O)C(C)(C)[C@@H]4CC[C@@]3(C)[C@]1(C)CC2 [TX63981] records IC50 below 0.7 nM.
f

Identify whether the molecule CC1(C)CC[C@]2(CCC(=O)NC(C)(C)C)CC[C@]3(C)[C@H](C(=O)C=C4[C@@]5(C)C=C(C#N)C(=O)C(C)(C)[C@@H]5CC[C@]43C)[C@@H]2C1 [TX64065] records IC50 below 0.7 nM.
t

###

Kindly supply the reported IC50 values for the records listed here.
Tested on: RAW264.7 mouse macrophages
Assay: Suppression of IFNγ-induced NO production (nitric oxide production and cell viability assay)
Assay type: cell-based
Settings: RAW264.7 cells, drug pre-treatment 2 hours, then recombinant mouse IFNγ 24 hours; Griess reagent; normalized to cell viability (WST-1)
Value expressed in nM; do not type the unit.

Param readout = IC50; param system = RAW264.7 mouse macrophages; param query = COC(=O)CC[C@]12CCC(C)(C)C[C@H]1[C@H]1C(=O)C=C3[C@@]4(C)C=C(C#N)C(=O)C(C)(C)[C@@H]4CC[C@@]3(C)[C@]1(C)CC2 ; response: value
2

Param readout = IC50; param system = RAW264.7 mouse macrophages; param query = CC1(C)CC[C@]2(CCC(N)=O)CC[C@]3(C)[C@H](C(=O)C=C4[C@@]5(C)C=C(C#N)C(=O)C(C)(C)[C@@H]5CC[C@]43C)[C@@H]2C1 ; response: value
0.3

Param readout = IC50; param system = RAW264.7 mouse macrophages; param query = CC1(C)CC[C@]2(CCC(=O)N3CCNCC3)CC[C@]3(C)[C@H](C(=O)C=C4[C@@]5(C)C=C(C#N)C(=O)C(C)(C)[C@@H]5CC[C@]43C)[C@@H]2C1 ; response: value
1.5

###

Kindly supply the reported IC50 values for the records listed here.
System: RAW264.7 mouse macrophages
Test: Suppression of IFNγ-induced NO production (nitric oxide production and cell viability assay)
Assay type: cell-based
Settings: RAW264.7 cells, drug pre-treatment 2 hours, then recombinant mouse IFNγ 24 hours; Griess reagent; normalized to cell viability (WST-1)
Value expressed in nM; do not type the unit.

Fill blank: measured IC50 of the compound CC1(C)CC[C@]2(CCC(=O)OC3CCCCC3)CC[C@]3(C)[C@H](C(=O)C=C4[C@@]5(C)C=C(C#N)C(=O)C(C)(C)[C@@H]5CC[C@]43C)[C@@H]2C1 is ____.
29

Fill blank: measured IC50 of the compound CNC(=O)CC[C@]12CCC(C)(C)C[C@H]1[C@H]1C(=O)C=C3[C@@]4(C)C=C(C#N)C(=O)C(C)(C)[C@@H]4CC[C@@]3(C)[C@]1(C)CC2 is ____.
0.2

Fill blank: measured IC50 of the compound CC1(C)CC[C@]2(CCC(=O)N3CCN(C(=O)OC(C)(C)C)CC3)CC[C@]3(C)[C@H](C(=O)C=C4[C@@]5(C)C=C(C#N)C(=O)C(C)(C)[C@@H]5CC[C@]43C)[C@@H]2C1 is ____.
3.4

Fill blank: measured IC50 of the compound CC1(C)CC[C@]2(CCC(=O)OC(C)(C)C)CC[C@]3(C)[C@H](C(=O)C=C4[C@@]5(C)C=C(C#N)C(=O)C(C)(C)[C@@H]5CC[C@]43C)[C@@H]2C1 is ____.
14

Fill blank: measured IC50 of the compound CCNC(=O)OC[C@]12CCC(C)(C)C[C@H]1[C@H]1C(=O)C=C3[C@@]4(C)C=C(C#N)C(=O)C(C)(C)[C@@H]4CC[C@@]3(C)[C@]1(C)CC2 is ____.
0.9

Fill blank: measured IC50 of the compound CC1(C)CC[C@]2(CCC(=O)N3CCCC3)CC[C@]3(C)[C@H](C(=O)C=C4[C@@]5(C)C=C(C#N)C(=O)C(C)(C)[C@@H]5CC[C@]43C)[C@@H]2C1 is ____.
0.6

Fill blank: measured IC50 of the compound CC1(C)CC[C@]2(COC(=O)N3CCOCC3)CC[C@]3(C)[C@H](C(=O)C=C4[C@@]5(C)C=C(C#N)C(=O)C(C)(C)[C@@H]5CC[C@]43C)[C@@H]2C1 is ____.
0.7

Fill blank: measured IC50 of the compound CC1(C)CC[C@]2(CCC(=O)O)CC[C@]3(C)[C@H](C(=O)C=C4[C@@]5(C)C=C(C#N)C(=O)C(C)(C)[C@@H]5CC[C@]43C)[C@@H]2C1 is ____.
1.2

Fill blank: measured IC50 of the compound CC1(C)CC[C@]2(CCC(=O)N3CC[C@H](O)C3)CC[C@]3(C)[C@H](C(=O)C=C4[C@@]5(C)C=C(C#N)C(=O)C(C)(C)[C@@H]5CC[C@]43C)[C@@H]2C1 is ____.
3.3

Fill blank: measured IC50 of the compound COC(=O)CNC(=O)CC[C@]12CCC(C)(C)C[C@H]1[C@H]1C(=O)C=C3[C@@]4(C)C=C(C#N)C(=O)C(C)(C)[C@@H]4CC[C@@]3(C)[C@]1(C)CC2 is ____.
2
